- Tested on: Salmonella enterica serovar Typhimurium SL1344
- measurementNotes: intracellular MIC (10-fold luminescence reduction); higher = less potent
- conditionSet: RAW264.7 macrophages
Where a name gives a salt, the structure may show the parent alone.
readout: intracellular MIC (µM)
Lab book: enter the figure in µM, no units written.

CNCCCC12CCC(c3ccccc31)c1ccccc12 [MAPROTILINE HYDROCHLORIDE]    3.13

Kindly note the recorded intracellular MIC for CO[C@@]1(NC(=O)C2SC(=C(C(N)=O)C(=O)O)S2)C(=O)N2C(C(=O)O)=C(CSc3nnnn3C)CS[C@@H]21 (stereo not given in full) , which is 1.56

Kindly note the recorded intracellular MIC for C[C@@H](O)[C@H]1C(=O)N2C(C(=O)O)=C(S[C@@H]3CN[C@H](C(=O)N(C)C)C3)[C@H](C)[C@H]12 , which is 3.13

---

- System: Salmonella enterica serovar Typhimurium SL1344
- measurementNotes: intracellular MIC (10-fold luminescence reduction); higher = less potent
- conditionSet: RAW264.7 macrophages
Structures can show the parent of a compound that is named as a salt.
intracellular MIC values for the compounds below.

CN(C)[C@@H]1C(O)=C(C(N)=O)C(=O)[C@@]2(O)C(O)=C3C(=O)c4c(O)cccc4[C@@](C)(O)[C@H]3[C@H](O)[C@@H]12    6.25 µM
C/C(=C\C(=O)OCCCCCCCCC(=O)O)C[C@@H]1OC[C@H](C[C@@H]2O[C@H]2[C@@H](C)[C@H](C)O)[C@@H](O)[C@H]1O    25 µM
CN(C)C(=O)Oc1ccc[n+](C)c1 [PYRIDOSTIGMINE BROMIDE]    > 50 µM
COc1c(N2CCNC(C)C2)c(F)cc2c(=O)c(C(=O)O)cn(C3CC3)c12 (stereo not drawn)    ≤ 0.78 µM
CC(C)NC(=N)NC(=N)Nc1ccc(Cl)cc1 [CHLOROGUANIDE HYDROCHLORIDE]    > 50 µM
C[C@H]1O[C@@H](n2cc(F)c(=O)[nH]c2=O)[C@H](O)[C@@H]1O    6.25 µM

Kindly note the recorded intracellular MIC for Cc1cc(CC(C)CC(C)(C)C)n(O)c(=O)c1 (stereo not drawn) , which is ≤ 0.78 µM

Kindly note the recorded intracellular MIC for CO[C@H]1/C=C/O[C@@]2(C)Oc3c(C)c(O)c4c(O)c(c5c(nc6cc(C)ccn65)c4c3C2=O)NC(=O)/C(C)=C\C=C\[C@H](C)[C@H](O)[C@@H](C)[C@@H](O)[C@@H](C)[C@H](OC(C)=O)[C@@H]1C , which is 12.5 µM

Kindly note the recorded intracellular MIC for CO/N=C(\C(=O)N[C@@H]1C(=O)N2C(C(=O)O)=C(CSc3nc(=O)c(O)nn3C)CS[C@H]12)c1csc(N)n1 [CEFTRIAXONE SODIUM TRIHYDRATE] , which is > 50 µM

Kindly note the recorded intracellular MIC for CN1C[C@H](CNC(=O)OCc2ccccc2)C[C@@H]2c3cccc4c3c(cn4C)C[C@H]21 , which is ≤ 0.78 µM

Kindly note the recorded intracellular MIC for CC[C@@H]1C(=O)OC[C@@H]1Cc1cncn1C [PILOCARPINE NITRATE] , which is ≤ 0.78 µM

Kindly note the recorded intracellular MIC for CC[C@H]1OC(=O)[C@H](C)C(=O)[C@H](C)[C@@H](O[C@@H]2O[C@H](C)C[C@H](N(C)C)[C@H]2O)[C@](C)(OC)C[C@@H](C)C(=O)[C@H](C)[C@H]2N(CCCCn3cnc(-c4cccnc4)c3)C(=O)O[C@]12C , which is ≤ 0.78 µM

Kindly note the recorded intracellular MIC for CCCCCCCCCCCCCCCC[n+]1ccccc1 [CETYLPYRIDINIUM CHLORIDE] , which is ≤ 0.78 µM
